Data provenance: patent US11415579B2

# target_entity: Cdk2(R122C) (C177A) (Homo sapiens, UniProt P24941, C177A/R122C)
# Construct: poly-histidine; made in house; host or cells: E. coli
# assay_summary: Kinetic thiol consumption assay with Cdk2 mutant R122C
# Type: binding
# reported_conditions: Protein: Cdk2; cysteine position R122C; additional mutation C177A; in h-1
reported_metric: Rate constant with Cdk2 R122C

C=CC(=O)N1CCCCCC1C/C=C/c1ccccc1 (stereo not shown); 0.008035
C=CC(=O)Nc1cccc(C(=O)c2ccccc2)c1; 0.008768

I. C=CC(=O)NC1CC2CC1C1CCCC21 (stereo not shown)
II. C=CC(=O)NCC1CCCN1S(=O)(=O)c1ccc(C(=O)O)cc1 (stereo not shown)
Smaller Rate constant with Cdk2 R122C value, I vs II ? Mark your answer with the label of the selected entry. I

----------
# target_entity: Cdk2(T182C) (C177A) (Homo sapiens, UniProt P24941, C177A/T182C)
# Construct: poly-histidine; made in house; host or cells: E. coli
# assay_summary: Kinetic thiol consumption assay with Cdk2 mutant T182C
# Format: binding
# reported_conditions: Protein: Cdk2; cysteine position T182C; additional mutation C177A; in h^-1
# Procedure: To wells containing 150 μL thiol (Cdk2 or model thiol) (5 μM) in degassed phosphate buffer (pH 8) was added immobilized TCEP beads (2% v/v). After incubation of the fluorescence plates for 1 hour at room temperature, fluorescence measurements (excitation/emission of 380/470 nm) were taken on a PerkinElmer EnVision multilabel plate reader and processed with EnVision Workstation version 1.12. Fluorescence measurements were normalized against a DMSO/thiol only control and plotted against time. […]
reported_metric: Rate constant with Cdk2 T182C

C=CC(=O)NC(C)c1cccc(N2CCOCC2)c1 (stereo not drawn); 0.001338
C=CC(=O)N1CCCCCC1c1cccs1 (stereo not drawn); 0.03082
C=CC(=O)NC(C)c1ccc2c(c1)OCO2 (stereo not drawn); 0.003057

1. C=CC(=O)NCc1ccc(-c2ccccc2)cc1
2. C=CC(=O)NC1(C2CC2)CC1
I'd appreciate it if you could identify which of 1 and 2 has the greater Rate constant with Cdk2 T182C. Refer to your chosen item by its label in the answer. 2
(2: 0.01308, 1: 0.001525)

P. C=CC(=O)N(CC(=O)NC1CC1)C1CC1
Q. C=CC(=O)NCCCN(C(=O)C1CCC1)C1CC1
Field: lower Rate constant with Cdk2 T182C | Options: P / Q # reply format: chosen label Q
(Q: 0.00832, P: 0.01849)

----------
# target_entity: Cdk2(R122C) (C177A) (Homo sapiens, UniProt P24941, C177A/R122C)
# Construct: poly-histidine; made in house; host or cells: E. coli
# assay_summary: Kinetic thiol consumption assay with Cdk2 mutant R122C
# Format: binding
# Parameters: key: rate constant with Cdk2 ÷ rate constant with model thiol (fold)
# reported_conditions: Cdk2 R122C, additional mutation C177A
reported_metric: Rate enhancement, Cdk2 R122C

C=CC(=O)N(C(=O)C=C)c1c2ccccc2n2c(C)nc3ccccc3c12; 0
C=CC(=O)N1CCCCCC1c1cccnc1 (stereo not drawn); 0.3573
C=CC(=O)N1CC(OCCN(CC)CC)C1; 0.846
C=CC(=O)Nc1cccc(Nc2ncnc3cc(OC)c(OC)cc23)c1; 0.8326

1. C=CC(=O)NCC1CCCN1S(=O)(=O)c1ccc(C(=O)O)cc1 (stereo not drawn)
2. C=CC(=O)N1CCN(C(=O)OC(C)(C)C)c2ccccc21
Exercise: compare 1 and 2 ; which one has the greater Rate enhancement, Cdk2 R122C? Indicate which entry you chose by stating its label. 1
(1: 0.4317, 2: 0.07164)
